Origin of measurements: ChEMBL document CHEMBL3508693

experiment: Cmax of aliskiren hemifumarate following repeated oral administration of [14C] aliskiren hemifumarate at 100 mg.Kg-1 level studied after 2h of dosing on day 1 in rat; type: ADME, organism-based, Albino HAN:WIST; conditions: in vivo, read-out: Cmax(1)
measurement label: Cmax (nM)
Form entry: value (nM) — number only.

Inquiry: Identify Cmax associated with the compound COCCCOc1cc(C[C@@H](C[C@H](N)[C@@H](O)C[C@H](C(=O)NCC(C)(C)C(N)=O)C(C)C)C(C)C)ccc1OC.COCCCOc1cc(C[C@@H](C[C@H](N)[C@@H](O)C[C@H](C(=O)NCC(C)(C)C(N)=O)C(C)C)C(C)C)ccc1OC.O=C(O)/C=C/C(=O)O [ALISKIREN FUMARATE]
Reply text: 639

====

test: AUC of aliskiren hemifumarate following 8 day once-daily dosing of SPP100B oral solution at 80 mg level studied on day 8 in men; format: ADME, organism-based; settings: male, human, plasma
measurement label: AUC at 192 h (ng·h/mL)
Form entry: value (ng·h/mL) — number only.

Inquiry: Identify AUC at 192 h associated with the molecule COCCCOc1cc(C[C@@H](C[C@H](N)[C@@H](O)C[C@H](C(=O)NCC(C)(C)C(N)=O)C(C)C)C(C)C)ccc1OC.COCCCOc1cc(C[C@@H](C[C@H](N)[C@@H](O)C[C@H](C(=O)NCC(C)(C)C(N)=O)C(C)C)C(C)C)ccc1OC.O=C(O)/C=C/C(=O)O [ALISKIREN FUMARATE]
Reply text: 137

====

assay: Cmax of aliskiren hemifumarate following 8 day once-daily dosing of SPP100B oral solution at 40 mg level studied on day 8 in men; assay type: ADME, organism-based; details: male, human, plasma
measurement label: Cmax (ng/mL)
Form entry: value (ng/mL) — number only.

Inquiry: Identify Cmax associated with the compound COCCCOc1cc(C[C@@H](C[C@H](N)[C@@H](O)C[C@H](C(=O)NCC(C)(C)C(N)=O)C(C)C)C(C)C)ccc1OC.COCCCOc1cc(C[C@@H](C[C@H](N)[C@@H](O)C[C@H](C(=O)NCC(C)(C)C(N)=O)C(C)C)C(C)C)ccc1OC.O=C(O)/C=C/C(=O)O [ALISKIREN FUMARATE]
Reply text: 6.2

====

experiment: Cmax of aliskiren hemifumarate following 2 week oral dosing of aliskiren hemifumarate at 50 mg.Kg-1 level studied on day 1 in male Callithrix jacchus; assay type: ADME, organism-based; conditions: marmoset, plasma
measurement label: Cmax (ng/mL)
Form entry: value (ng/mL) — number only.

Inquiry: Identify Cmax associated with the compound COCCCOc1cc(C[C@@H](C[C@H](N)[C@@H](O)C[C@H](C(=O)NCC(C)(C)C(N)=O)C(C)C)C(C)C)ccc1OC.COCCCOc1cc(C[C@@H](C[C@H](N)[C@@H](O)C[C@H](C(=O)NCC(C)(C)C(N)=O)C(C)C)C(C)C)ccc1OC.O=C(O)/C=C/C(=O)O [ALISKIREN FUMARATE]
Reply text: 6290

====

test: Cmax of aliskiren hemifumarate following 4 week oral dietary dosing of aliskiren hemifumarate at 1500 mg.Kg-1 level in male mouse; assay type: ADME, organism-based; conditions: CB6F1-TGrasH2, mouse, in vivo
measurement label: Cmax (ng/mL)
Form entry: value (ng/mL) — number only.

Inquiry: Identify Cmax associated with the molecule COCCCOc1cc(C[C@@H](C[C@H](N)[C@@H](O)C[C@H](C(=O)NCC(C)(C)C(N)=O)C(C)C)C(C)C)ccc1OC.COCCCOc1cc(C[C@@H](C[C@H](N)[C@@H](O)C[C@H](C(=O)NCC(C)(C)C(N)=O)C(C)C)C(C)C)ccc1OC.O=C(O)/C=C/C(=O)O [ALISKIREN FUMARATE]
Reply text: 363

====

test: AUC of aliskiren hemifumarate following 8 day once-daily dosing of SPP100B oral solution at 160 mg level studied on day 8 in men; type: ADME, organism-based; conditions: male, human, plasma
measurement label: AUC at 192 h (ng·h/mL)
Form entry: value (ng·h/mL) — number only.

Inquiry: Identify AUC at 192 h associated with the molecule COCCCOc1cc(C[C@@H](C[C@H](N)[C@@H](O)C[C@H](C(=O)NCC(C)(C)C(N)=O)C(C)C)C(C)C)ccc1OC.COCCCOc1cc(C[C@@H](C[C@H](N)[C@@H](O)C[C@H](C(=O)NCC(C)(C)C(N)=O)C(C)C)C(C)C)ccc1OC.O=C(O)/C=C/C(=O)O [ALISKIREN FUMARATE]
Reply text: 363

====

Molecular target: CYP1A2 (Homo sapiens, UniProt P05177)
Sequence (P05177 whole entry): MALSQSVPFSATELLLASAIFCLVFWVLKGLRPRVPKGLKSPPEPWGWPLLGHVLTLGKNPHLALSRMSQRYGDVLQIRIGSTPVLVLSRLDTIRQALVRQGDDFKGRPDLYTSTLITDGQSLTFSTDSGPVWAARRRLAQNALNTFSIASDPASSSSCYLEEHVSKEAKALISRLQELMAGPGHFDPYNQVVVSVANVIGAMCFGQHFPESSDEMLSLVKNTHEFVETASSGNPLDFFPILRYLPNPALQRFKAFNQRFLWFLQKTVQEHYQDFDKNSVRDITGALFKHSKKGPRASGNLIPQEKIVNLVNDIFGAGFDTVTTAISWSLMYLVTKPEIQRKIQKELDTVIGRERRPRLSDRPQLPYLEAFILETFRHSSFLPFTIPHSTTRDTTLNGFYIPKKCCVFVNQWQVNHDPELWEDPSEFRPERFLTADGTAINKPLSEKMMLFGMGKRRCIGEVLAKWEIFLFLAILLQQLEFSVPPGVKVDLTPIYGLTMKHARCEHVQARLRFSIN
Assay: Inhibitory activity of 200 uM SPP100 on 578 Pmoles of cDNA-derived CYP1A2 enzyme in microsome prepared from human lymphoblastoid cell line
Type: ADME, microsomes
Parameters: conc 200 uM, interact cpd conc 50 uM
Conditions: probe phenacetin
measurement label: inhibition at 200 µM
A bare number is not enough; add the unit after it.

Inquiry: Give inhibition at 200 µM for this entry on CYP1A2 (Homo sapiens, UniProt P05177): COCCCOc1cc(C[C@@H](C[C@H](N)[C@@H](O)C[C@H](C(=O)NCC(C)(C)C(N)=O)C(C)C)C(C)C)ccc1OC
Reply text: -12.4%

====

biological target: CYP2C9 (Homo sapiens); test: Inhibition of CYP2C9 in human liver microsomes from 10 healthy donors at 200 uM aliskiren (SPP100); assay type: ADME, Microsome; parameters: conc 200 uM; conditions: probe S-warfarin (7-hydroxylation)
Sequence (P11712 whole entry): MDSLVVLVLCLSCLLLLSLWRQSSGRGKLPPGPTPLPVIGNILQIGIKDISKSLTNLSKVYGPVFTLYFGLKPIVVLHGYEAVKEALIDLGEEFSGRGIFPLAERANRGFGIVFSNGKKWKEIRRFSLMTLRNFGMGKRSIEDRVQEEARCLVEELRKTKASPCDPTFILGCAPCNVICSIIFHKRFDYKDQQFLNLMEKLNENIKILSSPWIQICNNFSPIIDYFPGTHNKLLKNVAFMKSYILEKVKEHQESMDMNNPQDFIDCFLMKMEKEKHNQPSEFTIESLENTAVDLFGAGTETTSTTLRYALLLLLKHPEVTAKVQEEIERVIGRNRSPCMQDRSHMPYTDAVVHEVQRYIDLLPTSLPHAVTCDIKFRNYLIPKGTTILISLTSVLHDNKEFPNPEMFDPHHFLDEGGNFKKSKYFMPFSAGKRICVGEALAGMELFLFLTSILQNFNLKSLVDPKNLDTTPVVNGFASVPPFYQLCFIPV
measurement label: inhibition at 200 µM (%)
Form entry: value (%) — number only.

Inquiry: Give inhibition at 200 µM for this entry on CYP2C9 (Homo sapiens): COCCCOc1cc(C[C@@H](C[C@H](N)[C@@H](O)C[C@H](C(=O)NCC(C)(C)C(N)=O)C(C)C)C(C)C)ccc1OC
Reply text: 32.1

====

assay: Tmax of aliskiren hemifumarate following 8 day once-daily dosing of SPP100B oral solution at 640 mg level studied on day 8 in men; type: ADME, organism-based; details: male, human, plasma
measurement label: Tmax (h)
Form entry: value (h) — number only.

Inquiry: Identify Tmax associated with the compound COCCCOc1cc(C[C@@H](C[C@H](N)[C@@H](O)C[C@H](C(=O)NCC(C)(C)C(N)=O)C(C)C)C(C)C)ccc1OC.COCCCOc1cc(C[C@@H](C[C@H](N)[C@@H](O)C[C@H](C(=O)NCC(C)(C)C(N)=O)C(C)C)C(C)C)ccc1OC.O=C(O)/C=C/C(=O)O [ALISKIREN FUMARATE]
Reply text: 3.2

====

assay: Cmax of aliskiren hemifumarate following 2 week oral dosing of aliskiren hemifumarate at 50 mg.Kg-1 level studied on day 14 in female Callithrix jacchus; type: ADME, organism-based; details: marmoset, plasma
measurement label: Cmax (ng/mL)
Form entry: value (ng/mL) — number only.

Inquiry: Identify Cmax associated with the compound COCCCOc1cc(C[C@@H](C[C@H](N)[C@@H](O)C[C@H](C(=O)NCC(C)(C)C(N)=O)C(C)C)C(C)C)ccc1OC.COCCCOc1cc(C[C@@H](C[C@H](N)[C@@H](O)C[C@H](C(=O)NCC(C)(C)C(N)=O)C(C)C)C(C)C)ccc1OC.O=C(O)/C=C/C(=O)O [ALISKIREN FUMARATE]
Reply text: 10100

====

biological target: CYP2C19 (Homo sapiens, UniProt P33261); test: Inhibitory activity of 200 uM SPP100 on 1077 Pmoles of cDNA-derived CYP2C19 enzyme in microsome prepared from human lymphoblastoid cell line; assay type: ADME, microsomes; design: conc 200 uM, interact cpd conc 50 uM; conditions: probe (S)-mephenytoin (50 uM)
Sequence (P33261 whole entry): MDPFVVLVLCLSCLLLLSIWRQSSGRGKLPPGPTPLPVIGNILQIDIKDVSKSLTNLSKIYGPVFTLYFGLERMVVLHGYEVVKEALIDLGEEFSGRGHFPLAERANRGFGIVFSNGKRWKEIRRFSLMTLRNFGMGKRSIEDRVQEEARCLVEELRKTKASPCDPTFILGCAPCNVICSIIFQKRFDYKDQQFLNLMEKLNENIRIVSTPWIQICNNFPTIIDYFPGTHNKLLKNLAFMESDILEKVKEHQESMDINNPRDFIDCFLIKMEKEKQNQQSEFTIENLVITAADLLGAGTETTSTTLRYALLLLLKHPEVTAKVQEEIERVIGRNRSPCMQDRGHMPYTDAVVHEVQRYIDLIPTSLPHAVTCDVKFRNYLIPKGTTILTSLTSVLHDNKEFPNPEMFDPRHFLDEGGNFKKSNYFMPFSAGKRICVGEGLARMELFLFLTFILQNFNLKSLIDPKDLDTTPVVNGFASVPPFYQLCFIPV
measurement label: inhibition at 200 µM (%)
Form entry: value (%) — number only.

Inquiry: Identify inhibition at 200 µM associated with the compound COCCCOc1cc(C[C@@H](C[C@H](N)[C@@H](O)C[C@H](C(=O)NCC(C)(C)C(N)=O)C(C)C)C(C)C)ccc1OC
Reply text: 9.6
